Recorded Transcripts per million (rpm) values for a group of molecules are listed next.
System: L. acidophilus NCFM
Experiment: RNA-seq transcriptional analysis of L. acidophilus NCFM growing on plant glycosides
Type: cell-based, Lactobacillus acidophilus
Details: LBA1872 Oligo-1,6-glucosidase, COG G
attribute-measured: Transcripts per million (rpm)

smiles-representation: N#C[C@H](O[C@@H]1O[C@H](CO[C@@H]2O[C@H](CO)[C@@H](O)[C@H](O)[C@H]2O)[C@@H](O)[C@H](O)[C@H]1O)c1ccccc1
measurement-target: L. acidophilus NCFM
measured-value: 30

smiles-representation: OCc1ccccc1O[C@@H]1O[C@H](CO)[C@@H](O)[C@H](O)[C@H]1O
measurement-target: L. acidophilus NCFM
measured-value: 6.2

smiles-representation: OC[C@H]1O[C@@H](O[C@H]2[C@H](O)[C@@H](O)[C@@H](O)O[C@@H]2CO)[C@H](O)[C@@H](O)[C@H]1O
measurement-target: L. acidophilus NCFM
measured-value: 4

smiles-representation: O=c1ccc2cc(O[C@@H]3O[C@H](CO)[C@@H](O)[C@H](O)[C@H]3O)c(O)cc2o1
measurement-target: L. acidophilus NCFM
measured-value: 6.3

* * *

Recorded Log2 differential normalized TPM ratio compared to glucose values for a group of compounds are listed next.
Test system: L. acidophilus NCFM
Experiment: RNA-seq transcriptional analysis of L. acidophilus NCFM growing on plant glycosides
Assay type: cell-based, Lactobacillus acidophilus
Conditions: LBA1465 Transcription repressor of beta-galactosidasegene, COG K
attribute-measured: Log2 differential normalized TPM ratio compared to glucose

smiles-representation: OCc1ccccc1O[C@@H]1O[C@H](CO)[C@@H](O)[C@H](O)[C@H]1O
measured-value: −0.1

smiles-representation: O=c1ccc2cc(O[C@@H]3O[C@H](CO)[C@@H](O)[C@H](O)[C@H]3O)c(O)cc2o1
measured-value: −0.3

smiles-representation: N#C[C@H](O[C@@H]1O[C@H](CO[C@@H]2O[C@H](CO)[C@@H](O)[C@H](O)[C@H]2O)[C@@H](O)[C@H](O)[C@H]1O)c1ccccc1
measured-value: −0.1

smiles-representation: OC[C@H]1O[C@@H](O[C@H]2[C@H](O)[C@@H](O)[C@@H](O)O[C@@H]2CO)[C@H](O)[C@@H](O)[C@H]1O
measured-value: 3.1

* * *

System: L. acidophilus NCFM
Test: RNA-seq transcriptional analysis of L. acidophilus NCFM growing on plant glycosides
Type: cell-based, Lactobacillus acidophilus
Conditions: LBA1710 Thermostable pullulanase, COG G
Recorded Log2 differential normalized TPM ratio compared to glucose values for a group of compounds are listed next.
attribute-measured: Log2 differential normalized TPM ratio compared to glucose

smiles-representation: O=c1ccc2cc(O[C@@H]3O[C@H](CO)[C@@H](O)[C@H](O)[C@H]3O)c(O)cc2o1
measurement-target: L. acidophilus NCFM
measured-value: 0.3
//
smiles-representation: OCc1ccccc1O[C@@H]1O[C@H](CO)[C@@H](O)[C@H](O)[C@H]1O
measurement-target: L. acidophilus NCFM
measured-value: 0.5
//
smiles-representation: N#C[C@H](O[C@@H]1O[C@H](CO[C@@H]2O[C@H](CO)[C@@H](O)[C@H](O)[C@H]2O)[C@@H](O)[C@H](O)[C@H]1O)c1ccccc1
measurement-target: L. acidophilus NCFM
measured-value: 2.1
//
smiles-representation: OC[C@H]1O[C@@H](O[C@H]2[C@H](O)[C@@H](O)[C@@H](O)O[C@@H]2CO)[C@H](O)[C@@H](O)[C@H]1O
measurement-target: L. acidophilus NCFM
measured-value: 0.4
